Every entry's value here was drawn from PubChem BioAssay (NCI).

So I've got a bunch of molecules here, and I need their growth values.
- Tested on: RXF 393 renal
- EXPERIMENT NOTES: NCI-60 one-dose screen, 48 h (100 = growth as untreated, 0 = no growth, -100 = all killed)
- COND: 10 µM unless noted
This is part of a sample that, as a whole, favours compounds with a hit. Of some 83,000 tested, about 20% had one in any assay. Activity calls are given as the source filed them. Rule for the calls: active = growth percent below 10; inactive = the rest.

Worked set:
>>> observed_result("CCN(CC)C(=O)C1(C)CCCC2(C)c3cc(OC(C)=O)ccc3CCC12 (stereo unspecified)")
"92% (inactive)"
>>> observed_result("CC(O)c1cc[cH-]c1.[Fe+2].c1cc[cH-]c1 (stereo unspecified)")
"95.6% (inactive)"
>>> observed_result("CCCCCCC(C(=O)OCC)(C(=O)OCC)C1CCCCCC1")
"104% (inactive)"
>>> observed_result("Nc1cc(N)c2nc(-c3ccccc3)c(NCCc3ccc(Cl)c(Cl)c3)nc2c1")
"-94.3% (active)"
>>> observed_result("COC(=O)c1cc(Nc2ccc(O)c3c2C(=O)c2c([N+](=O)[O-])ccc(O)c2C3=O)cc(C(=O)OC)c1")
"51.9% (inactive)"
>>> observed_result("O=C(/C=C1\\C(=O)N(Cc2ccccc2)c2ccccc21)c1ccc(OCCN2CCCCC2)cc1")
"0.729% (active)"
>>> observed_result("O=C(Nc1cccc(Cn2c(=O)[nH]c3ccc(Oc4ncccn4)cc3c2=O)c1)c1cc(Cl)cc(Cl)c1")
"31.9% (inactive)"
>>> observed_result("COc1cc2ncnc(-n3ncc4cc(NC(=O)Nc5ccc(Cl)c(Cl)c5)ccc43)c2cc1OC")
"-86.7% (active)"

For each of the molecules below, note its growth.
1. Nc1cc(N)c2nc(NCCc3ccc(Cl)c(Cl)c3)cnc2c1
2. CNc1ccc(Nc2ccc(S(=O)(=O)O)cc2)c2c1C(=O)c1ccccc1C2=O
3. CCCCCCN(CCCCCC)CCC(=O)Nc1ccc(S(=O)(=O)c2ccc(NC(=O)CCN(CCCCCC)CCCCCC)cc2)cc1

Reply text:
1. 51.1% (inactive)
2. 104% (inactive)
3. 83.3% (inactive)

Value sought for every listed molecule: growth.
1. CCCCCSc1ccc2nc(NC(=O)OCC)sc2c1
2. Cc1c(Cc2ccccc2)c(=O)oc2c(C)c(OCC(=O)n3nc(C#N)cc3N)ccc12
3. c1cc[c]([Bi]([c]2ccccc2)[c]2ccccc2)cc1
4. CCOC(=O)C1CCCN1C(=O)C1(NC(C)=O)CCCC1 (stereo unspecified)

Reply text:
7.13% (active)
119% (inactive)
101% (inactive)
110% (inactive)

Okay, here is my list. What is growth for each of these?
1. COc1cc2cn3c4ccc(O)cc4[nH]c(=O)c3c2cc1OC
2. COC(=O)c1cc(O)c2cc3c(cc2c1-c1cc(OC)c(OC)c(OC)c1)OCO3
3. CCOC(=O)c1sc(NS(=O)(=O)c2ccccc2)nc1C
4. CCCCN(CCC)CCCCCCCCCCN1CCCc2ccccc21
5. O=C(O)c1ccc(Br)nc1

Reply text:
["26.8% (inactive)", "-31.3% (active)", "114% (inactive)", "109% (inactive)", "105% (inactive)"]

###

- Tested on: MCF7 breast
- EXPERIMENT NOTES: NCI-60 one-dose screen, 48 h (100 = growth as untreated, 0 = no growth, -100 = all killed)
- COND: 10 µM unless noted
This is part of a sample that, as a whole, favours compounds with a hit. Of some 83,000 tested, about 20% had one in any assay.
ENDPOINT LABEL: growth (%)
Answers are plain numbers, in %.

Illustrative cases are given below, each with its answer.
>>> observed_result("CCCCCCCCCCCCc1ccc([N+](CC)(CC)CC)cc1")
27.9
>>> observed_result("Nc1cc(N)c2nc(NCCc3ccc(Cl)c(Cl)c3)cnc2c1")
-43.5
>>> observed_result("CCCCCCCCCCCCCCCCNC(=S)N/N=C/c1ccc(OC)cc1")
102
>>> observed_result("CC(=O)/C(=C/c1ccc(-c2ccccc2)cc1)C(=O)c1ccccc1")
39.6
>>> observed_result("Clc1ccc(N/N=C/c2ccccn2)nc1")
0.994
>>> observed_result("COc1ccc2c(c1)/C(=C/c1c(-c3cc(OC)c(OC)c(OC)c3)nc3sccn13)C(=O)N2")
92.4
>>> observed_result("N=C(N)c1ccc(-c2ccc(-c3cc(Cl)cc(Cl)c3)s2)cc1")
-72.5
>>> observed_result("COc1cc(NC(=O)CSc2nc3ccc(Cl)cc3c(=O)n2-c2ccc(F)cc2)cc(OC)c1OC")
87.5
>>> observed_result("O=S(=O)(O)CCI")
98.3
>>> observed_result("CCN(CC)CCNc1ncnc2c1cnn2-c1ccc(Cl)cc1")
75

For each entry beneath this line, provide reported growth.
1. COc1cc(/C=C/C(=O)/C=C(/C=C/c2ccc(OC(C)=O)c(OC)c2)OB(F)F)ccc1OC(C)=O
2. CCCCCCCCCCCC(=O)OC(C)C(=O)Nc1ccccc1 (stereo not drawn)
3. COc1ccc2c(c1)/C(=C1/S/C(=N/c3nnc(C)s3)NC1=O)C(=O)N2Cc1ccc(Br)cc1
4. NCCCOc1cc2ccccc2cc1C(=O)Nc1ccc(Cl)cc1OC(=O)c1cc2ccccc2cc1OCCCN
5. COc1cc2cc3cc4cc(OC)c(OC)cc4c(C)[n+]3cc2cc1OC (tested in a mixture with another compound)
6. C=CCSc1nnc(COc2ccc3c(C)c(Cc4ccccc4)c(=O)oc3c2C)o1

Reply text:
1: 21.5; 2: 91.7; 3: 35.1; 4: -78.9; 5: 67.6; 6: 95.7

###

- Tested on: SF-268 CNS
- EXPERIMENT NOTES: NCI-60 one-dose screen, 48 h (100 = growth as untreated, 0 = no growth, -100 = all killed)
- COND: 10 µM unless noted
This is part of a sample that, as a whole, favours compounds with a hit. Of some 83,000 tested, about 20% had one in any assay.
Binary label based on growth with cut-off 80%: below gives class 1, not below gives class 0.

Known results for compounds:
>>> label("O=C(Cc1ccccc1[N+](=O)[O-])c1ccc2c(c1)OCO2")
"class 0"
>>> label("COc1ccc2nc3cc(Cl)ccc3c(NCCCNC(C)=O)c2c1")
"class 1"
>>> label("CCc1c(C)c2ccc(OCC(=O)N=Nc3c(O)[nH]c4ccccc34)c(C)c2oc1=O")
"class 1"
>>> label("CCCCN(CCCC)CCCNc1c2c(nc3ccc(Cl)cc13)CCCC2")
"class 0"
>>> label("CN1CCN(Cc2ccc(NC(=O)c3cncc(C#Cc4c(N)ncc5ccc(F)cc45)c3)cc2C(F)(F)F)CC1")
"class 1"

Inquiry: Record COc1cccc(Cn2cc3c(c2)-c2oncc2CC3)c1 : is its growth strictly below 80%?
Reply text: class 1

Inquiry: Also check CC([C@H]1CC=C2C3CCC4=C[C@@H](N(C)C)CC[C@]4(C)C3CC[C@@]21C)N(C)C (some centres not stated)
Reply text: class 1

Inquiry: # repeat for CCCCN(CCCC)CC(O)CN(CC)CC (configuration not stated)
Reply text: class 0

Inquiry: Next entry: N#Cc1c2cccnc2c2nnc3cc(Cl)c(Cl)cc3n12
Reply text: class 1

Inquiry: Now try CC(C)(C)c1ccc([I+]c2ccc(C(C)(C)C)cc2)cc1 .
Reply text: class 1

Inquiry: Subsequent entry: CCCNC(=O)Oc1ccc(/C(=C(/CC)Cc2ccccc2)c2ccc(OCCN(CC)CC)cc2)cc1
Reply text: class 1

Inquiry: Same thing, different compound: COc1cc(-c2nn(-c3ccc(NC(=O)c4cc(Cl)cc(Cl)c4)cc3)cc2-c2ccncc2)ccc1Cl
Reply text: class 1

Inquiry: Same question, CCCCCCCCCCCCCCCC[n+]1cccc(C#N)c1 this time
Reply text: class 1

###

- System: HT29 colon
- EXPERIMENT NOTES: NCI-60 one-dose screen, 48 h
- COND: 10 µM unless noted
Compounds without any hit were thinned out: in the full panel of roughly 83,000, 20% have a hit. The source made the active and inactive calls. How the source made its calls: active means growth percent below 10; inactive means the rest.
Your response should consist of one outcome taken from TRUE for active, FALSE for inactive

>>> label("CC(=O)CC(=O)OC/C=C(/C)CCC=C(C)C")
"FALSE"
>>> label("COc1ccc2c(N)ncc(C#Cc3cc(C(=O)Nc4ccc(CN5CCN(C)CC5)c(C(F)(F)F)c4)cnc3C)c2c1")
"TRUE"
>>> label("COc1ccc(/C=C2\\SC(=O)N(Cc3cc(=O)oc4ccc(OC)cc34)C2=O)cc1")
"FALSE"
>>> label("CC1=NN(c2cccc(Cl)c2)C(=O)/C1=C\\c1cn(-c2nc(N3CCOCC3)nc(N3CCOCC3)n2)c2ccccc12")
"FALSE"
>>> label("O=c1[nH]c(=S)[nH]c(O)c1/C=C1\\C=Nc2ccccc21")
"FALSE"
>>> label("CSC1=Nc2c(c(C)c(-c3ccccc3)n2CCCCl)C2=NC(=O)CN12")
"FALSE"
>>> label("C=C1CCC2C3(C)COC(c4ccccc4)OC3CCC2(C)C1C/C=C1/C(=O)OCC1O (stereo unspecified)")
"FALSE"
>>> label("S=C(N/N=C/c1cc(Cl)cc(Cl)c1)NC12CC3CC(CC(C3)C1)C2")
"FALSE"

Inquiry: Outcome logged for N#Cc1c2ncccc2c2nnc3cc(Cl)c(Cl)cc3n12 in this assay:
Reply text: FALSE

Inquiry: Param item: Cc1nc(N)sc1C(=O)NCCO
Reply text: FALSE

Inquiry: Proceed to C[C@@H](c1ccc2c(c1)[nH]c1ccc(Cl)cc12)c1nc2ccccc2[nH]1
Reply text: FALSE

Inquiry: // next record Cc1ccc(CC(=O)O)c(C)c1
Reply text: FALSE

Inquiry: And Oc1ccc(CN(Cc2ccc(C(F)(F)F)cc2)Cc2ccc(O)c3ncccc23)c2cccnc12 ?
Reply text: FALSE
